List of inhibition values.
Measured On: Amyloid-beta precursor protein (Homo sapiens)
Procedure Text: Inhibition of HFIP-pretreated amyloid beta (1 to 42) (unknown origin) aggregation at 10 uM after 48 hrs measured every 3 mins by thioflavin T-based fluorometric assay relative to control
Endpoint Name: inhibition (%)

molecule="c1ccc(CN2CCC(NCCN3CCN(C(c4ccccc4)c4ccccc4)CC3)C2)cc1 (centres undefined)" measured_on="Amyloid-beta precursor protein (Homo sapiens)" endpoint_result=27.7
molecule="c1ccc(CN2CCN(CCNC3CCN(Cc4ccccc4)C3)CC2)cc1 (centres undefined)" measured_on="Amyloid-beta precursor protein (Homo sapiens)" endpoint_result=19.2
molecule="O=C(CN1CCC(Cc2ccccc2)CC1)NC1CCN(Cc2ccccc2)C1 (centres undefined)" measured_on="Amyloid-beta precursor protein (Homo sapiens)" endpoint_result=22.1
molecule="O=C(CN1CCC(C(c2ccccc2)c2ccccc2)CC1)NC1CCN(Cc2ccccc2)C1 (centres undefined)" measured_on="Amyloid-beta precursor protein (Homo sapiens)" endpoint_result=35.3

====

Procedure Text: Antioxidant activity assessed as increase in total ferric ion reducing activity at 75 uM using FeCl3.H2O and TPTZ incubated for 60 mins by FRAP assay relative to control
Format: functional
Design: scale not given: the % may be the effect or the level left
Classify by measured Activity: T if it is equal to or exceeds 30%, F if it is smaller.

molecule="c1ccc(CN2CCC(NCCN3CCN(c4ccccc4)CC3)C2)cc1 (stereo not drawn)" class_label=T
molecule="c1ccc(CCC2CCN(CCNC3CCN(Cc4ccccc4)C3)CC2)cc1 (stereo not drawn)" class_label=F
molecule="c1ccc(CCN2CCN(CCNC3CCN(Cc4ccccc4)C3)CC2)cc1 (stereo not drawn)" class_label=F
molecule="c1ccc(CC2CCN(CCNC3CCN(Cc4ccccc4)C3)CC2)cc1 (stereo not drawn)" class_label=F
molecule="O=C(CN1CCN(c2ccccc2)CC1)NC1CCN(Cc2ccccc2)C1 (stereo not drawn)" class_label=T
molecule="O=C(CN1CCC(Cc2ccccc2)CC1)NC1CCN(Cc2ccccc2)C1 (stereo not drawn)" class_label=F
molecule="c1ccc(CN2CCC(NCCN3CCCC(c4ccccc4)C3)C2)cc1 (stereo not drawn)" class_label=F
molecule="Cc1c(C)c2c(c(C)c1O)CCC(C)(C(=O)O)O2 (stereo not drawn)" class_label=T
molecule="c1ccc(CN2CCC(NCCN3CCN(C(c4ccccc4)c4ccccc4)CC3)C2)cc1 (stereo not drawn)" class_label=F
molecule="c1ccc(CCC2CCCN(CCNC3CCN(Cc4ccccc4)C3)C2)cc1 (stereo not drawn)" class_label=F
molecule="c1ccc(CN2CCC(NCCN3CCC(c4ccccc4)CC3)C2)cc1 (stereo not drawn)" class_label=F

====

Measured On: Cholinesterase (Equus caballus, UniProt P81908)
Sequence (P81908 whole entry): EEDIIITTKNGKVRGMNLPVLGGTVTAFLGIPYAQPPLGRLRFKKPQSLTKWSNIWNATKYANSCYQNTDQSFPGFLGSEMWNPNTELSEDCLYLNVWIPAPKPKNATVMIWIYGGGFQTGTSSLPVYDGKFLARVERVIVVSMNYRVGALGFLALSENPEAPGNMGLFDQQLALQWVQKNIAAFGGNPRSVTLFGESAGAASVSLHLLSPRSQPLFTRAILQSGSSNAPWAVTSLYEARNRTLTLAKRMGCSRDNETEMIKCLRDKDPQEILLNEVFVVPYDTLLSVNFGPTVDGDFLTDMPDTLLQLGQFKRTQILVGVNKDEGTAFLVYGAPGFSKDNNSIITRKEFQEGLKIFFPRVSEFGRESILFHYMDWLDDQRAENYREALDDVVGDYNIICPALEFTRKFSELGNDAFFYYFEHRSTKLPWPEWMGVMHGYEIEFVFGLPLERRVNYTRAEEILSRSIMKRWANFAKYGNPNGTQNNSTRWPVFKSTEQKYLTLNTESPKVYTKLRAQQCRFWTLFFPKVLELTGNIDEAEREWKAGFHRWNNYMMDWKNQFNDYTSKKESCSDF
pIC50: −log10 of the molar value.
List of pIC50 values.
Endpoint Name: pIC50

compound="c1ccc(CN2CCC(NCCN3CCCC(c4ccccc4)C3)C2)cc1 (configuration not stated)" endpoint_result=5.62
compound="c1ccc(CC2CCCN(CCNC3CCN(Cc4ccccc4)C3)C2)cc1 (configuration not stated)" endpoint_result=5.71
compound="c1ccc(CCC2CCCN(CCNC3CCN(Cc4ccccc4)C3)C2)cc1 (configuration not stated)" endpoint_result=5.49
compound="c1ccc(CCC2CCN(CCNC3CCN(Cc4ccccc4)C3)CC2)cc1 (configuration not stated)" endpoint_result=5.13
compound="O=C(CN1CCCC(Cc2ccccc2)C1)NC1CCN(Cc2ccccc2)C1 (configuration not stated)" endpoint_result=5.15
compound="c1ccc(CC2CCN(CCNC3CCN(Cc4ccccc4)C3)CC2)cc1 (configuration not stated)" endpoint_result=6.21
compound="O=C(CN1CCCC(CCc2ccccc2)C1)NC1CCN(Cc2ccccc2)C1 (configuration not stated)" endpoint_result=4.99
